Values were extracted from patent US20260365670A1.

molecular target: EGFR Exon19Del (Homo sapiens, UniProt P00533, DEL746-750); construct: purchased Carna Bio; experiment: Inhibition of EGFR Exon19Del biochemical enzymatic activity (HTRF); settings: EGFR Del19, 1 mM ATP, 1 h, room temperature, read-out: IC50 @Del19
Sequence (P00533 with tags, fused parts or gaps DEL746-750 limits assumed): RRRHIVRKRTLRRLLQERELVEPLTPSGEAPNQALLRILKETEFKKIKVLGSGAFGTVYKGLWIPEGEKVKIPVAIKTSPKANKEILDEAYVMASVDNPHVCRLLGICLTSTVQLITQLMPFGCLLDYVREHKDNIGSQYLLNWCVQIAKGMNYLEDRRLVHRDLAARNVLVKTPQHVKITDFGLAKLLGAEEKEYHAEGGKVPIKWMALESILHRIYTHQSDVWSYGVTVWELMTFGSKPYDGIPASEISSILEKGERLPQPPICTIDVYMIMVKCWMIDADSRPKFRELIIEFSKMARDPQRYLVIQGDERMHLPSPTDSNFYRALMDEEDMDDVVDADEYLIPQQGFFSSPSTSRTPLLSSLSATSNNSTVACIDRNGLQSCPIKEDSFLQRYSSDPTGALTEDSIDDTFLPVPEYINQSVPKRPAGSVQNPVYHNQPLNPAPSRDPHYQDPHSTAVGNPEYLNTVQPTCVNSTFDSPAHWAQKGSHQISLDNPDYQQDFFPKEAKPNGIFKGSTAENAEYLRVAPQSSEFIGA
observable: IC50 (nM)
Write the value in nM as a bare number.

Answered examples (2):
| compound | study.target | reported.value |
| --- | --- | --- |
| CN1CCC2(CC1)CCN(c1ccc3nc4n(c3c1)C13CCC(CC1)CN(CCOc1c(cnn1C)-c1cc(cn(C)c1=O)C(=O)N4)C3)C2 | EGFR Exon19Del (Homo sapiens, UniProt P00533, DEL746-750) | 13 |
| CN(C)CCC1CN(c2ccc3nc4n(c3c2)C23CCC(CN(CCOc5c(cnn5C)-c5cc(cn(C)c5=O)C(=O)N4)C2)C3)C1 (single isomer, unassigned) [Example A95B] | EGFR Exon19Del (Homo sapiens, UniProt P00533, DEL746-750) | 1.7 |

Proceed to the following item.
Need IC50 of Cn1ncc2c1OCCN1CC3CCC(C3)(C1)n1c(nc3ccc(N4CCN(C5CC5)CC4)cc31)NC(=O)c1cc-2c(=O)n(C)c1 (single isomer, unassigned) [Example A83B] , thanks.
0.96

---

The entries below come with measured pIC50 values attached.
biological target: EGFR Exon19Del (Homo sapiens, UniProt P00533, DEL746-750); construct: purchased Carna Bio; assay: Inhibition of EGFR Exon19Del biochemical enzymatic activity (HTRF); settings: EGFR Exon19Del, 1 mM ATP, 1 h at room temperature, read-out: IC50 @Del19
Reminder that pIC50 is minus the log10 of a molar concentration.

Could you tell me which pIC50 is on file for Cc1cc2cc(n1)-c1cnn(C)c1OCCN1CC3CCC(CC3)(C1)n1c(nc3ccc(N(C)CCCN(C)C)cc31)NC2=O ?
7.55

Now consider Cc1cc2cc(n1)-c1cnn(C)c1OCCN1CC3CCC(C3)(C1)n1c(nc3ccc(N(C)CCCN(C)C)cc31)NC2=O (single isomer, unassigned) [Example B45B] .
8.28

Thanks! And Cc1cc2cc(n1)-c1cnn(C)c1OCCN1CC3CCC(C3)(C1)n1c(nc3ccc(N4CCC(N5CCOCC5)C4)cc31)NC2=O (single isomer, unassigned) [Example B44B] ?
7.74

---

target: EGFR[T790M/C797S/L858R] (Homo sapiens, UniProt P00533, C797S/L858R/T790M); construct: purchased Carna Bio; assay: Inhibition of EGFR[T790M/C797S/L858R] biochemical enzymatic activity (HTRF); details: EGFR T790M-C797S-L858R, 1 mM ATP, 1 h, room temperature, read-out: IC50 (nM) @T790M- C797S - L858R
Sequence (P00533 25-1210 T790M/C797S/L858R): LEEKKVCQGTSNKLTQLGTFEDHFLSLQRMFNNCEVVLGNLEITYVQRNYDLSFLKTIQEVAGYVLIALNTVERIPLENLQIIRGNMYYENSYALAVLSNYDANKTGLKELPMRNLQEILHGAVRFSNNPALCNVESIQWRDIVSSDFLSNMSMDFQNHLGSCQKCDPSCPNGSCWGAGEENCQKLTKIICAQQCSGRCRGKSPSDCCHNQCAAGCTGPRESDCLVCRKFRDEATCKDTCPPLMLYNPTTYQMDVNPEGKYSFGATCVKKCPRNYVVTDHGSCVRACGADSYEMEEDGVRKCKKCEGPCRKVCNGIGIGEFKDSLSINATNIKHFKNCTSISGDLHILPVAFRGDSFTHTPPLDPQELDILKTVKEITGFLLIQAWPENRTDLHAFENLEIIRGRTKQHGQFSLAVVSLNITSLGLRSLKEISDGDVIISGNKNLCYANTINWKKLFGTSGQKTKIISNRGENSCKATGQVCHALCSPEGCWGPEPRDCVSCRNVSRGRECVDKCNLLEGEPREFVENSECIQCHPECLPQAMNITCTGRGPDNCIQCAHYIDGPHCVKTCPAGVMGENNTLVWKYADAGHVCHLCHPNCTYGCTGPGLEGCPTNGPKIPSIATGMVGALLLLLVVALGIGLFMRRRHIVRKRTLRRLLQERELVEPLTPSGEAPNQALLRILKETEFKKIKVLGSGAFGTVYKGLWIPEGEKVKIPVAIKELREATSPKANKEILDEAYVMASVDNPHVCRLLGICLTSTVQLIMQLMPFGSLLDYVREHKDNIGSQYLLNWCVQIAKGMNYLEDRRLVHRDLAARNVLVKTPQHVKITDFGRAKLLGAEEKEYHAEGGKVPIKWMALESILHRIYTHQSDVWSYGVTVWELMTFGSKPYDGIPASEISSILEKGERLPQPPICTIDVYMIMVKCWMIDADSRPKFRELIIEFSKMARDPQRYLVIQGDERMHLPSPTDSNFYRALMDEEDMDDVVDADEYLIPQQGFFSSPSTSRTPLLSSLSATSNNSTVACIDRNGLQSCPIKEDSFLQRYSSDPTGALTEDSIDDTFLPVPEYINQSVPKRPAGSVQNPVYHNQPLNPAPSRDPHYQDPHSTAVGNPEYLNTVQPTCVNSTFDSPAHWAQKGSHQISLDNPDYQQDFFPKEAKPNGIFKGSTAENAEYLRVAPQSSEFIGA
As shown below, each of these compounds has a reported IC50 value.
Report the value in nM with no unit label.

// below: answered compounds
| compound | reported.value |
| --- | --- |
| CCN1CCN(c2ccc3nc4n(c3c2)C23CCC(CN(CCOc5c(cnn5C)-c5cc(cn(C)c5=O)C(=O)N4)C2)C3)CC1 (single isomer, unassigned) [Example A107B] | 2.1 |
| C[C@@H]1CCCOc2c(cnn2C)-c2cc(cn(C)c2=O)C(=O)Nc2nc3ccc(N4CCC5(CC4)CCN5C)cc3n2C1 | 3.9 |
| CN1CCC12CCN(c1ccc3nc4n(c3c1)C13CCC(CC1)CN(CCOc1c(cnn1C)-c1cc(cn(C)c1=O)C(=O)N4)C3)CC2 | 8.1 |

Look up IC50 with EGFR[T790M/C797S/L858R] (Homo sapiens, UniProt P00533, C797S/L858R/T790M) for this compound: CC(C)N1CCN(c2ccc3nc4n(c3c2)C[C@H](C)CCCOc2c(cnn2C)-c2cc(cn(C)c2=O)C(=O)N4)CC1
4.8

Try CN1CCCC12CN(c1ccc3nc4n(c3c1)C13CCC(CN(CCOc5c(cnn5C)-c5cc(cn(C)c5=O)C(=O)N4)C1)C3)C2 (single isomer, unassigned) [Example A76B] next.
6.9

Follow-up entry: Cn1ncc2c1OCCN1CC3CCC(C3)(C1)n1c(nc3ccc(N4CCC(N5CCOCC5)C4)cc31)NC(=O)c1cc-2c(=O)n(C)c1 (single isomer, unassigned) [Example A104B]
6.6
